# System: ISC-enriched organoids
# protocol text: Primary screen, 384-well 2.5-D organoid differentiation (ENR+CD, 6 days): basal lysozyme secretion (LYZ.NS)
# Type: cell-based, murine
# test conditions: dose 2.00 uM
Assignment: determine reported Z.LYZ.NS (standard z score) for the given compounds.
One number for each entry.

compound=C[C@H](Cn1cnc2c(N)ncnc21)OCP(=O)(O)O value_type="Z.LYZ.NS (standard z score)" value_reported=−1.153
compound=NC(=O)Nc1sc(-c2ccc(F)cc2)cc1C(N)=O value_type="Z.LYZ.NS (standard z score)" value_reported=−0.514
compound="COc1ccc2cc(-c3nc(-c4ccc([S+](C)[O-])cc4)[nH]c3-c3ccncc3)ccc2c1 (stereo not shown)" value_type="Z.LYZ.NS (standard z score)" value_reported=1.577

Hey, can you go through the list below and give me Z.LYZ.NS (standard z score) for every item?
1. O=C(O[C@H]1C[C@H]2CC[C@@H](C1)[N+]21CCCC1)C(O)(c1ccccc1)c1ccccc1 [Trospium chloride]
2. Cc1ccc(NC(=O)C2(c3ccc4c(c3)OC(F)(F)O4)CC2)nc1-c1cccc(C(=O)O)c1
3. CC(C)(C)c1cc(/C=C(\C#N)C(N)=S)cc(C(C)(C)C)c1O
4. N#C[C@@H]1CCCN1C(=O)CNC12CC3CC(CC(O)(C3)C1)C2
5. COc1cc2/c(=N/c3ccc(Br)cc3F)nc[nH]c2cc1OCC1CCN(C)CC1 [Vandetanib (ZD6474)]
6. Cl.N[C@@H]1C[C@H]1c1ccccc1 (racemic) [Tranylcypromine (2-PCPA) HCl]
7. C[C@@H]1CCN(C(=O)CC#N)C[C@@H]1N(C)c1ncnc2[nH]ccc12

Result ::
["−0.017", "−0.279", "−0.698", 1.478, "−2.356", 0.423, "−0.061"]

Cited source for all entries: patent US20230398130A1
